We begin with a simple list: items and their reported Potency.
assay-summary: BET inhibitor-based combinations targeting novel dependencies in MECOM-rearranged (r) AML: MV-4-11 cell line (AID 2202233); note: potency is the fitted concentration of half-maximal effect; nearly all actives have a fitted effect of over 45% in size
condition-summary: MV-4-11 AML viability, CellTiter-Glo luminescence, 48 h; series mostly up to 46 µM
Results filed as inconclusive are left out. Activity calls are given as the source filed them. Calls come from the whole dose curve; as a rule, active = well fitted inhibition curve with a large enough effect; inconclusive = small, poorly fitted or top-dose-only effect; inactive = no such curve, though single readings can be large or run the other way.

# smiles-data, Potency
rows = [
    ("CO[C@H]1/C=C\\C=C(\\C)C(=O)NC2=CC(=O)C(NCCN(C)C)=C(C[C@@H](C)C[C@H](OC)[C@H](O)[C@@H](C)/C=C(/C)[C@@H]1OC(N)=O)C2=O", "0.0295 µM (active)"),
]

Here is another molecule to look at.
Record request: Potency value, item CON(C)C(=O)N1N=C(c2cc(F)ccc2F)S[C@@]1(CCCN)c1ccccc1
0.0118 µM (active)
